Record: IC50 reported on UniProt Q7ZJM1.
Sequence (Q7ZJM1 whole entry): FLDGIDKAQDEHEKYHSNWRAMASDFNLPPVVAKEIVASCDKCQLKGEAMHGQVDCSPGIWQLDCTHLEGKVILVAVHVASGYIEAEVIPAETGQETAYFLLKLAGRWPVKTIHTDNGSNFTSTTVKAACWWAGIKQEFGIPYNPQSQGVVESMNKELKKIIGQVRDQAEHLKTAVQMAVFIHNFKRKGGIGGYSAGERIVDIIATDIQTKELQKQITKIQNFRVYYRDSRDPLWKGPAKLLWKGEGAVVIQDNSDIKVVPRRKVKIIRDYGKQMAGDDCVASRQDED
RESULT_TYPE: IC50 (µM)

Example entries and their recorded answers appear below.
COMPOUND: O=C1OC(c2ccc(OCc3ccccc3)c(OCc3ccccc3)c2)C(c2ccc(O)cc2)=C1O (centres undefined)
UNITS_LABEL: µM
IC50: 1
--
COMPOUND: O=C1OC(c2cc(OCc3ccccc3)cc(OCc3ccccc3)c2)C(c2ccc(F)cc2)=C1O (centres undefined)
UNITS_LABEL: µM
IC50: 30
--
COMPOUND: O=C1OC(c2ccc(O)cc2)C(c2ccc(F)cc2)=C1O (centres undefined)
UNITS_LABEL: µM
IC50: 300
--
COMPOUND: O=C1OC(c2cc(O)cc(O)c2)C(c2ccc(F)cc2)=C1O (centres undefined)
UNITS_LABEL: µM
IC50: 92
--
COMPOUND: O=C1OC(c2ccc(O)c(O)c2)C(c2ccc(O)cc2)=C1O (centres undefined)
UNITS_LABEL: µM
IC50: 9.2
--
COMPOUND: O=C1OC(c2ccc(O)cc2)C(c2ccc(O)cc2)=C1O (centres undefined)
UNITS_LABEL: µM
IC50: 220
--
COMPOUND: O=C1OC(c2ccc(OCc3ccccc3)c(OCc3ccccc3)c2)C(c2ccc(F)cc2)=C1O (centres undefined)
UNITS_LABEL: µM
IC50: 10

(a) O=C1OC(c2cc(O)cc(O)c2)C(c2ccc(O)cc2)=C1O (centres undefined)
(b) O=C1OCC(c2ccc(O)cc2)=C1O
Which value of IC50 is greater, the one for a or the one for b ? Response format: the label of the selected entry.
a
(a: 22 µM, b: 3.6 µM)

---

- MEASURED_TARGET: Polyunsaturated fatty acid 5-lipoxygenase (Homo sapiens) (UniProt P09917)
- Sequence (P09917 whole entry): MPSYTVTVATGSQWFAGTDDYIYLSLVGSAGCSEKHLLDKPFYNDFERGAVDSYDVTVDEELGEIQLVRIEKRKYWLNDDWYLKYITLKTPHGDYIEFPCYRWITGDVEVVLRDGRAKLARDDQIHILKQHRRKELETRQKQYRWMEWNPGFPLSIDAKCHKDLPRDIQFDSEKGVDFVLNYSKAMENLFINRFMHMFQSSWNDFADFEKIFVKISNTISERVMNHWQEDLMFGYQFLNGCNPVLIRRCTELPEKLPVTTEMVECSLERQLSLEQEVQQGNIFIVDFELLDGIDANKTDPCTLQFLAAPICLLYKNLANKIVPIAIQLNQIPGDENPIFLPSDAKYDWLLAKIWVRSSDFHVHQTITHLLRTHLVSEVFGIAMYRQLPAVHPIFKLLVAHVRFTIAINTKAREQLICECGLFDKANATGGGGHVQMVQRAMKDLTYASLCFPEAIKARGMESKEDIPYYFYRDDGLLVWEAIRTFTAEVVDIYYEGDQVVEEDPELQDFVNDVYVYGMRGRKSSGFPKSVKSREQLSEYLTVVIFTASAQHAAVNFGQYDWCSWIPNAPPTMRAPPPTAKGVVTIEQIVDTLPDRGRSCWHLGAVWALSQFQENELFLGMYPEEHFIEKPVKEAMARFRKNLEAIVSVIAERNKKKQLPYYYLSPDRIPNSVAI
- TEST_METHOD_NOTES: Inhibition of 5LOX in human whole blood assessed as inhibition of calcium ionophore A-stimulated 5-HETE production at 10 uM
- Assay type: tissue-based
- Parameters: scale not given: the % may be the effect or the level left
RESULT_TYPE: Activity (%)

COMPOUND: O=C1OC(c2ccc(O)cc2)C(c2ccc(O)cc2)=C1O (stereo not drawn)
MEASURED_TARGET: Polyunsaturated fatty acid 5-lipoxygenase (Homo sapiens) (UniProt P09917)
UNITS_LABEL: %
Activity: 0
--
COMPOUND: O=C1OC(c2ccc(O)cc2)C(c2ccc(F)cc2)=C1O (stereo not drawn)
MEASURED_TARGET: Polyunsaturated fatty acid 5-lipoxygenase (Homo sapiens) (UniProt P09917)
UNITS_LABEL: %
Activity: 0
--
COMPOUND: O=C1OC(c2ccc(OCc3ccccc3)cc2)C(c2ccc(F)cc2)=C1O (stereo not drawn)
MEASURED_TARGET: Polyunsaturated fatty acid 5-lipoxygenase (Homo sapiens) (UniProt P09917)
UNITS_LABEL: %
Activity: 0

---

Each entry below carries its reported inhibition at 10 µM.
- Test system: PC-3
- TEST_METHOD_NOTES: Antiproliferative activity against human PC3 cells at 10 uM after 72 hrs by MTT assay
- Type: functional
- MEASUREMENT_SETUP: PC-3, 72 h
Your answer should be a plain number; it is taken to be in %.

What does the record list as inhibition at 10 µM for O=C1OC(c2ccc(O)cc2)C(c2ccc(F)cc2)=C1O (stereo not given) ?
31

Name the reported inhibition at 10 µM value associated with the molecule O=C1OC(c2cc(O)cc(O)c2)C(c2ccc(O)cc2)=C1O (stereo not given)
39

What value of inhibition at 10 µM has been reported for the following molecule? O=C1OC(c2ccc(O)cc2)C(c2ccc(O)cc2)=C1O (stereo not given)
0

Given the molecule O=C1OC(c2cc(O)cc(O)c2)C(c2ccc(F)cc2)=C1O (stereo not given) , what is its reported inhibition at 10 µM?
0

Entry O=C1OC(c2ccc(O)c(O)c2)C(c2ccc(O)cc2)=C1O (stereo not given) : reported inhibition at 10 µM = ?
20

---

- MEASURED_TARGET: Polyunsaturated fatty acid 5-lipoxygenase (Homo sapiens)
- TEST_METHOD_NOTES: Inhibition of 5LOX in human whole blood assessed as inhibition of calcium ionophore A-stimulated 5-HETE production at 10 uM
- Assay type: tissue-based
- Parameters: scale not given: the % may be the effect or the level left
RESULT_TYPE: Activity (%)

COMPOUND: O=C1OC(c2ccc(OCc3ccccc3)c(OCc3ccccc3)c2)C(c2ccc(F)cc2)=C1O (stereo not given)
UNITS_LABEL: %
Activity: 0
--
COMPOUND: O=C1OC(c2ccccc2)C(c2ccc(O)cc2)=C1O (stereo not given)
UNITS_LABEL: %
Activity: 0
--
COMPOUND: O=C1OC(c2cc(O)cc(O)c2)C(c2ccc(F)cc2)=C1O (stereo not given)
UNITS_LABEL: %
Activity: 0
--
COMPOUND: O=C1OC(c2ccc(O)c(O)c2)C(c2ccc(O)cc2)=C1O (stereo not given)
UNITS_LABEL: %
Activity: 35.4
--
COMPOUND: O=C1OC(c2cc(OCc3ccccc3)cc(OCc3ccccc3)c2)C(c2ccc(F)cc2)=C1O (stereo not given)
UNITS_LABEL: %
Activity: 0

(A) O=C1OC(c2ccc(OCc3ccccc3)cc2)C(c2ccc(O)cc2)=C1O (stereo not given)
(B) O=C1OC(c2cc(OCc3ccccc3)cc(OCc3ccccc3)c2)C(c2ccc(O)cc2)=C1O (stereo not given)
(C) O=C1OC(c2ccc(OCc3ccccc3)c(OCc3ccccc3)c2)C(c2ccc(O)cc2)=C1O (stereo not given)
Let's sort these by Activity, smallest first. Go ahead? Use the labels to give the ranking in the order requested.
A, C, B

---

- TEST_METHOD_NOTES: Antioxidant activity assessed as inhibition of peroxynitrite-induced evans blue bleaching at 50 uM
- Format: functional
- Design: scale not given: the % may be the effect or the level left
Measured Activity values are reported for all entries that follow.
Quick note: give the figure in %, leave out the unit.

// known answers, use as guide
COMPOUND: O=C1OC(c2ccc(OCc3ccccc3)cc2)C(c2ccc(O)cc2)=C1O (stereo not given)
Activity, %: 0

COMPOUND: Cc1c(C)c2c(c(C)c1O)CCC(C)(C(=O)O)O2 (stereo not given)
Activity, %: 90

COMPOUND: O=C1OC(c2ccccc2)C(c2ccc(O)cc2)=C1O (stereo not given)
Activity, %: 29.4

COMPOUND: O=C1OC(c2ccc(O)c(O)c2)C(c2ccc(O)cc2)=C1O (stereo not given)
Activity, %: 92

COMPOUND: O=C1OC(c2ccc(F)cc2)C(c2ccc(O)cc2)=C1O (stereo not given)
Activity, %: 46.5

COMPOUND: O=C1O[C@H]([C@@H](O)CO)C(O)=C1O
Activity, %: 83.6

COMPOUND: O=C1OC(c2ccc(OCc3ccccc3)c(OCc3ccccc3)c2)C(c2ccc(O)cc2)=C1O (stereo not given)
Activity, %: 4.9

COMPOUND: O=C1OC(c2ccc(OCc3ccccc3)cc2)C(c2ccc(F)cc2)=C1O (stereo not given)
Activity, %: 0

COMPOUND: O=C1OC(c2cc(O)cc(O)c2)C(c2ccc(O)cc2)=C1O (stereo not given)
Activity, %: 33.1

COMPOUND: O=C1OC(c2cc(O)cc(O)c2)C(c2ccc(F)cc2)=C1O (stereo not given)
Activity, %: 40.9

Quick one: Activity of O=C1OC(c2ccc(O)cc2)C(c2ccc(F)cc2)=C1O (stereo not given) ?
0

Name the reported Activity value associated with the compound O=C1OC(c2cc(OCc3ccccc3)cc(OCc3ccccc3)c2)C(c2ccc(F)cc2)=C1O (stereo not given)
0

Can you share its Activity? I mean this compound: O=C1OC(c2ccc(OCc3ccccc3)c(OCc3ccccc3)c2)C(c2ccc(F)cc2)=C1O (stereo not given)
0

Item under review: O=C1OC(c2ccc(O)cc2)C(c2ccc(O)cc2)=C1O (stereo not given) . Reported Activity?
44.9

Would you mind telling me what Activity value was observed for O=C1OC(c2cc(OCc3ccccc3)cc(OCc3ccccc3)c2)C(c2ccc(O)cc2)=C1O (stereo not given) ?
10.4

---

- MEASURED_TARGET: UniProtKB P09917
- TEST_METHOD_NOTES: Inhibition of 5LOX in human whole blood assessed as inhibition of calcium ionophore A-stimulated 5-HETE production at 100 uM
- Type: tissue-based
- Design: scale not given: the % may be the effect or the level left
RESULT_TYPE: Activity (%)

Solved entries (count: 5):
COMPOUND: O=C1OC(c2cc(O)cc(O)c2)C(c2ccc(F)cc2)=C1O (configuration not stated)
RESULT_TYPE: Activity
EXPERIMENTAL_VALUE: 10.7
//
COMPOUND: O=C1OC(c2ccc(O)cc2)C(c2ccc(O)cc2)=C1O (configuration not stated)
RESULT_TYPE: Activity
EXPERIMENTAL_VALUE: 27.8
//
COMPOUND: O=C1OC(c2ccc(O)cc2)C(c2ccc(F)cc2)=C1O (configuration not stated)
RESULT_TYPE: Activity
EXPERIMENTAL_VALUE: 0
//
COMPOUND: O=C1OC(c2ccccc2)C(c2ccc(O)cc2)=C1O (configuration not stated)
RESULT_TYPE: Activity
EXPERIMENTAL_VALUE: 18.6
//
COMPOUND: O=C1OC(c2ccc(F)cc2)C(c2ccc(O)cc2)=C1O (configuration not stated)
RESULT_TYPE: Activity
EXPERIMENTAL_VALUE: 16.4

(1) O=C1OC(c2cc(O)cc(O)c2)C(c2ccc(O)cc2)=C1O (configuration not stated)
(2) O=C1OC(c2ccc(O)c(O)c2)C(c2ccc(O)cc2)=C1O (configuration not stated)
API: POST /compare with 1 and 2 ; response names the item with higher Activity. Kindly give the label for the entry you pick.
2
